Target: UniProtKB P14780
Sequence (P14780 whole entry, the tested form may be a part): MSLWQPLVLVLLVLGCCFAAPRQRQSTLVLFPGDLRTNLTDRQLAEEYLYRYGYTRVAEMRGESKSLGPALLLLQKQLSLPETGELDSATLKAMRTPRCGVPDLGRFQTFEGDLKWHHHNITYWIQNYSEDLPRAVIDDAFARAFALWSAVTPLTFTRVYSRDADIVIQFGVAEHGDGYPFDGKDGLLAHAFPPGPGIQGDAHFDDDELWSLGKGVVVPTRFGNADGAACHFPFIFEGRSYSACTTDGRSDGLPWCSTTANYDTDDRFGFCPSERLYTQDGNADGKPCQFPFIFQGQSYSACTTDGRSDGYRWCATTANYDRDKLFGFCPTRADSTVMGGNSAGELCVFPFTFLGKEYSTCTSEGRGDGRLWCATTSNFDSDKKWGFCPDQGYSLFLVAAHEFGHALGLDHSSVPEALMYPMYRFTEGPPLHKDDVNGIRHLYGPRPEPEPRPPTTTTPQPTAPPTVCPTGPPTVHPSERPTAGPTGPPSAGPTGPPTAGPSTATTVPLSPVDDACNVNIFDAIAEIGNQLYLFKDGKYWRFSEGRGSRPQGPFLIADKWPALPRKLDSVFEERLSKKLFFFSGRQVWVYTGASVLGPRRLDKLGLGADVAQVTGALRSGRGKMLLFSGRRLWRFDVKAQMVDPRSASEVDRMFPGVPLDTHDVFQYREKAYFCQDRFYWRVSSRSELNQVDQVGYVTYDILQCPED
Assay: Inhibition of recombinant human MMP9 (107 to 449 residues) using Mca-Pro-Leu-Gly-Leu-Dpa-Ala-Arg-NH2 expressed in Escherichia coli expression system as substrate incubated for 15 mins followed by substrate addition and measured after 2 to 4 hrs by fluorescence based assay
measurement name: IC50 (µM)
Express the result in µM but write the number alone.

Example entries and their recorded answers appear below.
smiles=COc1ccc(Nc2cc(-c3ccco3)cc3c2c(=O)[nH]c2ccccc23)cc1 system_name="UniProtKB P14780" measurement_name=IC50 numeric_readout=9
smiles=COc1ccc(Nc2cc(-c3cccs3)cc3c2c(=O)[nH]c2ccccc23)cc1 system_name="UniProtKB P14780" measurement_name=IC50 numeric_readout=5
smiles=COc1ccc(Nc2cc(-c3ccccc3)cc3c2c(=O)[nH]c2c(OC)c(OC)ccc23)cc1 system_name="UniProtKB P14780" measurement_name=IC50 numeric_readout=20.5

Ask: Requested field: IC50. Item: O=c1[nH]c2ccccc2c2cc(-c3ccccc3)cc(Nc3ccccc3)c12
Result: 54

Ask: Requested field: IC50. Item: O=c1[nH]c2ccccc2c2cc(-c3cccs3)cc(Nc3ccccc3)c12
Result: 16.1

Ask: Requested field: IC50. Item: COc1ccc(Nc2cc(-c3ccccc3)cc3c2c(=O)[nH]c2ccccc23)cc1
Result: 22

Ask: Requested field: IC50. Item: Cc1cc(C)cc(Nc2cc(-c3ccco3)cc3c2c(=O)[nH]c2ccccc23)c1
Result: 86

Ask: Requested field: IC50. Item: O=c1[nH]c2ccccc2c2cc(-c3cccs3)cc(Nc3ccc(F)cc3)c12
Result: 20.1

Ask: Requested field: IC50. Item: Cc1ccc(-c2cc(Nc3ccccc3)c3c(=O)[nH]c4ccccc4c3c2)cc1
Result: 37.5

###

Molecular target: Neutrophil collagenase (Homo sapiens)
Sequence (P22894 whole entry, the tested form may be a part): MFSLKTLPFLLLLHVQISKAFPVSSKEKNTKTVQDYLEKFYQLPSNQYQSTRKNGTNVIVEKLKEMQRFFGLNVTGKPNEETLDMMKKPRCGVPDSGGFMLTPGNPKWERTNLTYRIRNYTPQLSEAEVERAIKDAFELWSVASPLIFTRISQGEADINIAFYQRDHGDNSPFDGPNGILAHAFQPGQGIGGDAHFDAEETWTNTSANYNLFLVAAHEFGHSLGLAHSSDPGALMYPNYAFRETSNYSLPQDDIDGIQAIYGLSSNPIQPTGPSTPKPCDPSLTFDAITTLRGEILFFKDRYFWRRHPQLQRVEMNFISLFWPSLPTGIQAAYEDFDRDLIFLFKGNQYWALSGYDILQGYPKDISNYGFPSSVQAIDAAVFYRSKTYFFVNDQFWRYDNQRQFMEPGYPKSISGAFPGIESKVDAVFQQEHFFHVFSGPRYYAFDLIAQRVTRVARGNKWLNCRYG
Assay: Inhibition of recombinant human MMP8 (99 to 269 residues) using Mca-Pro-Leu-Gly-Leu-Dpa-Ala-Arg-NH2 expressed in Escherichia coli expression system as substrate incubated for 15 mins followed by substrate addition and measured after 2 to 4 hrs by fluorescence based assay
measurement name: pIC50
Reminder that pIC50 means the negative base-10 logarithm of the concentration expressed in mol/L.

smiles=COc1ccc(Nc2cc(-c3ccco3)cc3c2c(=O)[nH]c2ccccc23)cc1 system_name="Neutrophil collagenase (Homo sapiens)" numeric_readout=4.64
smiles=COc1ccc(Nc2cc(-c3ccccc3)cc3c2c(=O)[nH]c2c(OC)c(OC)ccc23)cc1 system_name="Neutrophil collagenase (Homo sapiens)" numeric_readout=4.17
smiles=O=c1[nH]c2ccccc2c2cc(-c3ccccc3)cc(Nc3ccccc3)c12 system_name="Neutrophil collagenase (Homo sapiens)" numeric_readout=4.16

Ask: # get_value(readout= pIC50, system= Neutrophil collagenase (Homo sapiens)) for CN(C)c1ccc(Nc2cc(-c3ccccc3)cc3c2c(=O)[nH]c2ccccc23)cc1
Result: 4.08

Ask: # get_value(readout= pIC50, system= Neutrophil collagenase (Homo sapiens)) for Cc1ccc(-c2cc(Nc3ccccc3)c3c(=O)[nH]c4ccccc4c3c2)cc1
Result: 4.21

Ask: # get_value(readout= pIC50, system= Neutrophil collagenase (Homo sapiens)) for Cc1cc(C)cc(Nc2cc(-c3ccco3)cc3c2c(=O)[nH]c2ccccc23)c1
Result: 4.22

Ask: # get_value(readout= pIC50, system= Neutrophil collagenase (Homo sapiens)) for COc1ccc(Nc2cc(-c3cccs3)cc3c2c(=O)[nH]c2ccccc23)cc1
Result: 5.15

Ask: # get_value(readout= pIC50, system= Neutrophil collagenase (Homo sapiens)) for CCCCNc1cc(-c2ccccc2)cc2c1c(=O)[nH]c1ccccc12
Result: 4.07

Ask: # get_value(readout= pIC50, system= Neutrophil collagenase (Homo sapiens)) for O=c1[nH]c2ccccc2c2cc(-c3cccs3)cc(Nc3ccccc3)c12
Result: 4.74

Ask: # get_value(readout= pIC50, system= Neutrophil collagenase (Homo sapiens)) for COc1ccc(-c2cc(Nc3ccccc3)c3c(=O)[nH]c4ccccc4c3c2)cc1
Result: 4.27

Ask: # get_value(readout= pIC50, system= Neutrophil collagenase (Homo sapiens)) for O=c1[nH]c2ccccc2c2cc(-c3cccs3)cc(Nc3ccc(F)cc3)c12
Result: 4.58

Ask: # get_value(readout= pIC50, system= Neutrophil collagenase (Homo sapiens)) for Nc1ccc(-c2cc(Nc3ccccc3)c3c(=O)[nH]c4ccccc4c3c2)cc1
Result: 4.33
